Protection: recorded values
- Tested on: HepG2
- measurement_protocol: Tested in vitro for hepatoprotective effect of 10 ug/ml of compound on cell growth and lesions in Hep G2 cells treated with aflatoxin B1 (10 e -5 M)
- Type: functional, Homo sapiens
Give just the numeric value; % need not be written.

- molecule: "CC(=O)OC[C@]1(C)C2CC[C@]3(C)C(CC=C4[C@@H]5CC(C)(C)C[C@@H](O)[C@]5(C)CC[C@]43C)[C@@]2(C)CC[C@@H]1O (some centres not stated)"
  tgt: "HepG2"
  quantity_unit: "%"
  val: 45
- molecule: "CC1(C)C[C@@H](O)[C@]2(C)CC[C@]3(C)C(=CCC4[C@@]5(C)CC[C@H](O)[C@](C)(C=O)C5CC[C@]43C)[C@@H]2C1 (some centres not stated)"
  tgt: "HepG2"
  quantity_unit: "%"
  val: 32
- molecule: "CC1(C)C[C@@H](O)[C@]2(C)CC[C@]3(C)C(=CCC4[C@@]5(C)CCC[C@](C)(CO)C5CC[C@]43C)[C@@H]2C1 (some centres not stated)"
  tgt: "HepG2"
  quantity_unit: "%"
  val: 0
- molecule: "CO[C@@H]1CC(C)(C)C[C@H]2C3=CCC4[C@@]5(C)CC[C@H](O)[C@](C)(CO)C5CC[C@@]4(C)[C@]3(C)CC[C@@]12C (some centres not stated)"
  tgt: "HepG2"
  quantity_unit: "%"
  val: 9
- molecule: "COC[C@]1(C)C2CC[C@]3(C)C(CC=C4[C@@H]5CC(C)(C)C[C@@H](O)[C@]5(C)CC[C@]43C)[C@@]2(C)CC[C@@H]1O (some centres not stated)"
  tgt: "HepG2"
  quantity_unit: "%"
  val: 48

Query block: Please tell me: Protection of CC1(C)C[C@@H](O)[C@]2(C)CC[C@]3(C)C(=CCC4[C@@]5(C)CC[C@H](O)[C@](C)(C(=O)O)C5CC[C@]43C)[C@@H]2C1 (some centres not stated) , system HepG2?
Result block: 44
